Please consider the recorded Kd for AKT (PH domain) (Homo sapiens, UniProt P31749) in what follows.

{"columns": ["Compound", "Kd, µM"],
 "data": [
  ["COc1cc(/C=C/C(=O)O)ccc1O[C@@H]1O[C@H](C(=O)O)[C@@H](O)[C@H](O)[C@H]1O [FA4G, ferulic-4′-O-glucuronide]", 48.1],
  ["O=C(O)/C=C/c1ccc(O[C@@H]2O[C@H](C(=O)O)[C@@H](O)[C@H](O)[C@H]2O)c(O)c1 [CA4G, caffeic-4′-O-glucuronide]", 37.9],
  ["O=C(O)/C=C/c1ccc(O)c(O)c1", 183],
  ["COc1cc(/C=C/C(=O)O)ccc1O", 185]
]}
